B1: TPR t1 (parent)
chain: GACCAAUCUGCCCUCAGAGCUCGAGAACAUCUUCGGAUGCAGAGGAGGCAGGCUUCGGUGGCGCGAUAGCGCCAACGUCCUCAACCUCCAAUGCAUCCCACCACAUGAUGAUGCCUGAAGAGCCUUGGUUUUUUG

Variants of: B1
assay_comment: polymerase ribozyme fitness, log enrichment relative to wild type (log ratio); higher = more active; in vitro selection for triplet polymerase activity
Give T when the value for polymerase ribozyme fitness (log ratio) is at least -2. Give F when it is less.

In [3]: df
Out[3]:
                                     var  label_value
 0                            G10C U112G            T
 1                   C49G G63A U78A C99A            F
 2                  U9C C13A C102U A111C            T
 3                  C20A G42A G57U A100C            F
 4                      U96G A108G G117A            F
 5                       U54A C82U G113A            T
 6                             C49U G61U            T
 7             C22G G23A G61U C89U C114U            F
 8            A50C C53U C72U G127A U133A            F
 9                             G10U C94U            T
10                            A26G U129C            F
11                             U32C C99U            F
12         U7G G10U C15A U54A C72G C104A            F
13                      A66G A100U G128A            F
14                       G58U G61A U131G            T
15             G48C C72G U78G U92A C124G            F
16                      C85U C101G C115A            F
17                        C11G C12A G63A            T
18                       A41U C80U C123A            T
19                       A50G C82A G120U            T
20                            C99U A111C            F
21                  U59C A83U C94A C115U            F
22  G19U A24U A41C A43U U92G C101G G110U            F
23                      G39U G107U G117U            F
24                             A41C G71U            T
25                            G48C G128C            F
26                A95G G110U U130G U132A            T
27                            G44U C114G            F
28                 C76A A84U U106A G120U            F
29                  G10A C73U A84U G110U            F
30                 C34U C72U A105G G120A            F
31             C40G C82A A83C U87A A121U            T
32                           A105U G117A            F
33                               A6U C8A            T
34                             A27U G47U            F
35                   C3A G36C G63A U130C            F
36                            A91G U129A            F
37              C8U C40U G60A C82A G120U            T
38                             C22G U78G            F
39                       C40A G69C U130C            F
40                              C3G C72U            F
41                  C22U G63C U78G U112A            F
42                           U125A U133C            T
43                             U38G G60U            T
